# PROTOCOL DETAILS: Plasma pharmacokinetics of oral terameprocol, GATOR trial
# Type: in vivo, human
# TEST CONDITIONS: human, plasma, po, 6000 mg, Tmax, oral 6,000 mg fed, cycle 1 day 4, median (range; n)
PARAMETER: Tmax (h)

{"columns": ["SMILES ENTRY", "PARAMETER", "VALUE"],
 "data": [
  ["COc1ccc(C[C@@H](C)[C@@H](C)Cc2ccc(OC)c(OC)c2)cc1OC", "Tmax", 8]
]}

====

# PROTOCOL DETAILS: Plasma pharmacokinetics of oral terameprocol, GATOR trial
# Type: in vivo, human
# TEST CONDITIONS: human, plasma, po, 6000 mg, T1/2, oral 6,000 mg fasted, cycle 1 day 4, 1 patient

{"columns": ["COMPOUND", "half-life"],
 "data": [
  ["COc1ccc(C[C@@H](C)[C@@H](C)Cc2ccc(OC)c(OC)c2)cc1OC [terameprocol]", "14.9 h"]
]}

====

# PROTOCOL DETAILS: Plasma pharmacokinetics of oral terameprocol, GATOR trial
# Assay type: in vivo, human
# TEST CONDITIONS: human, plasma, po, 4800 mg, Cmax, oral 4,800 mg fed, cycle 1 day 4, 1 patient
PARAMETER: Cmax (ng/mL)

{"columns": ["COMPOUND", "PARAMETER", "RESULT UNITS", "VALUE"],
 "data": [
  ["COc1ccc(C[C@@H](C)[C@@H](C)Cc2ccc(OC)c(OC)c2)cc1OC [terameprocol]", "Cmax", "ng/mL", 230]
]}

====

# PROTOCOL DETAILS: Plasma pharmacokinetics of oral terameprocol, GATOR trial
# Format: in vivo, human
# TEST CONDITIONS: human, plasma, po, 6000 mg, AUCINF, oral 6,000 mg fed, cycle 1 day 1, mean ± SD
PARAMETER: AUC(0-inf) (ng·h/mL)

{"columns": ["COMPOUND", "VALUE"],
 "data": [
  ["COc1ccc(C[C@@H](C)[C@@H](C)Cc2ccc(OC)c(OC)c2)cc1OC [terameprocol]", 2400]
]}

====

# PROTOCOL DETAILS: Plasma pharmacokinetics of oral terameprocol, GATOR trial
# Assay type: in vivo, human
# TEST CONDITIONS: human, plasma, po, 3600 mg, Cmax, oral 3,600 mg fasted, cycle 1 day 4, mean ± SD

{"columns": ["SMILES ENTRY", "RESULT UNITS", "Cmax"],
 "data": [
  ["COc1ccc(C[C@@H](C)[C@@H](C)Cc2ccc(OC)c(OC)c2)cc1OC", "ng/mL", 250]
]}

====

# PROTOCOL DETAILS: Plasma pharmacokinetics of oral terameprocol, GATOR trial
# Type: in vivo, human
# TEST CONDITIONS: human, plasma, po, 3600 mg, T1/2, oral 3,600 mg fasted, cycle 1 day 1, mean ± SD
PARAMETER: half-life (h)

{"columns": ["SMILES ENTRY", "VALUE"],
 "data": [
  ["COc1ccc(C[C@@H](C)[C@@H](C)Cc2ccc(OC)c(OC)c2)cc1OC", 6]
]}

====

# PROTOCOL DETAILS: Plasma pharmacokinetics of oral terameprocol, GATOR trial
# Type: in vivo, human
# TEST CONDITIONS: human, plasma, po, 6000 mg, T1/2, oral 6,000 mg fed, cycle 1 day 1, mean ± SD
PARAMETER: half-life (min)

{"columns": ["SMILES ENTRY", "PARAMETER", "VALUE"],
 "data": [
  ["COc1ccc(C[C@@H](C)[C@@H](C)Cc2ccc(OC)c(OC)c2)cc1OC", "half-life", 396]
]}

Reference for the values: paper PMC11293336
